Target: human histamine H3 receptor (Homo sapiens)
Construct: expressed in transfected cells; host or cells: tsA201 cells (transformed HEK-293), transient transfection
Test: IP-One (HTRF IP1 accumulation) assay, H3 receptor co-expressed with chimeric Gqi5 in tsA201 cells
Type: cell-based
Conditions: antagonist mode, in the presence of EC80 of histamine
Property measured: pIC50 ± SEM
Number, no unit, nothing else.

Worked cases, pIC50 ± SEM given:
Compound	pIC50 ± SEM
Cc1ccc2c(c1)c1c3n2CCN(CC(O)CNCc2ccccc2)C3CCC1 (stereo not drawn) [Compound 42]	4.38
CCCCN1CN(CCCN2CCCCC2)Cn2c1nc1ccccc12 [Compound 35]	5.5
CCCCN1CN(CCCN(C)c2ccccc2)Cn2c1nc1ccccc12 [Compound 68]	4.66
Cc1ccc2c(c1)c1c3n2CCN(CC(O)CN2CCN(C)CC2)C3CCC1 (stereo not drawn) [Compound 75]	3.92
CCN1CCNC(=O)C1CC(=O)N1CCc2[nH]c3c(C)cccc3c2C1 (stereo not drawn) [Compound 64]	3.58

Qu. Output pIC50 ± SEM of Cc1nc(N2CCN(c3ncc[nH]c3=O)CC2)c2sccc2n1 [Compound 21]
Ans. 4.68

====

Biological target: human histamine H3 receptor (Homo sapiens, UniProt Q9Y5N1)
Sequence (Q9Y5N1 whole entry): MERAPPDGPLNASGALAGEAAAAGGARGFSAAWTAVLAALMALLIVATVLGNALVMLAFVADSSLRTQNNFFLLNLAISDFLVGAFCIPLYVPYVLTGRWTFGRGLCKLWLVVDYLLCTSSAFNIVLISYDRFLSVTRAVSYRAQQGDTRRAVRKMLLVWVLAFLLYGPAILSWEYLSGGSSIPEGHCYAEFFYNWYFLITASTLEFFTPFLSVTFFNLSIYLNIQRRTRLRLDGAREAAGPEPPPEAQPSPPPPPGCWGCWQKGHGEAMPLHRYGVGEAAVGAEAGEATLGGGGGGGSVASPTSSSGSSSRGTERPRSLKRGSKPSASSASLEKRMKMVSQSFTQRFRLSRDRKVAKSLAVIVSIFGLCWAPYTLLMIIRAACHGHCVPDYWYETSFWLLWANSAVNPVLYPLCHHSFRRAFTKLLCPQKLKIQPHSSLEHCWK
Test: IP-One (HTRF IP1 accumulation) assay, H3 receptor co-expressed with chimeric Gqi5 in tsA201 cells
Conditions: antagonist mode, in the presence of EC80 of histamine
Protocol: Human tsA201 cells, a transformed HEK-293 cell line[70], were cultivated in Dulbecco’s Modified Eagle’s Medium (DMEM) with GlutaMAX, supplemented with 10% foetal bovine serum, penicillin 100 U/ml and streptomycin 100 µg/ml. […] We applied the highly sensitive high-throughput homogeneous time-resolved fluorescence (HTRF) technology[71] for detection of IP-One generation using the Cisbio IP-One Tb assay kit, exactly as previously described. […]
pIC50: −log10 of the molar value.
Short version: pIC50 at least 5 is Satisfied, less is Not satisfied.

Compound	Tested target	Assigned label
CCCCN1CN(CCCN2CCCCC2)Cn2c1nc1ccccc12	human histamine H3 receptor (Homo sapiens, UniProt Q9Y5N1)	Satisfied
Cc1ccc2c(c1)c1c3n2CCN(CC(O)CNCc2ccccc2)C3CCC1 (stereo not drawn)	human histamine H3 receptor (Homo sapiens, UniProt Q9Y5N1)	Not satisfied

Qu. Exam item: decide whether the reported pIC50 for CCCCN1CN(CCCN(C)c2ccccc2)Cn2c1nc1ccccc12 is at least 5.
Ans. Not satisfied

Qu. Exam item: decide whether the reported pIC50 for CCN1CCNC(=O)C1CC(=O)N1CCc2[nH]c3c(C)cccc3c2C1 (stereo not drawn) is at least 5.
Ans. Not satisfied

Qu. Exam item: decide whether the reported pIC50 for Cc1ccc2c(c1)c1c3n2CCN(CC(O)CN2CCN(C)CC2)C3CCC1 (stereo not drawn) is at least 5.
Ans. Not satisfied

Qu. Exam item: decide whether the reported pIC50 for Cc1nc(N2CCN(c3ncc[nH]c3=O)CC2)c2sccc2n1 is at least 5.
Ans. Not satisfied
